// EC50 collected for Estrogen receptor beta (Homo sapiens, UniProt Q92731)
# value in nM; strip the unit string

Please review the following examples before continuing.
compound	unit_tag	experimental_value
CCCC12CCC(=O)C(C)=C1c1ccc3nn[nH]c3c1C2 (centres undefined)	nM	17
CCCC[C@@]12CCC(=O)C(c3cccs3)=C1c1ccc3nn[nH]c3c1C2	nM	0.96
CCC12CCC(=O)C(Br)=C1c1ccc3nn[nH]c3c1C2 (centres undefined)	nM	46

Lookup: Give its EC50 value. Item: CCCCC1=C2c3ccc4[nH]nnc4c3CC2(CC)CCC1=O (centres undefined)
Found: 60

----------
measurement_protocol: Half life in Sprague-Dawley rat at 1 mg/kg, iv and 2 mg/kg, po
Format: ADME, organism-based
measurement_context: in vivo
readout: half-life (h)
# value in h; strip the unit string

Please review the following examples before continuing.
compound	half-life, h
CCCC[C@@]12CCC(=O)C(CC)=C1c1ccc3nn[nH]c3c1C2	0.4
CC[C@@]12CCC(=O)C(C(F)(F)F)=C1c1ccc3nn[nH]c3c1C2	0.4

Lookup: Give its half-life value. Item: CCCCC12CCC(=O)C(Br)=C1c1ccc3nn[nH]c3c1C2 (racemic)
Found: 1.5

Lookup: Subsequent entry: `CCC1=C2c3ccc4[nH]nnc4c3C[C@]2(CC)CCC1=O`
Found: 0.3

Lookup: Subsequent entry: CCCCC12CCC(=O)C(CC)=C1c1ccc3[nH]nnc3c1C2 (racemic)
Found: 2.9

Lookup: Subsequent entry: `CCCC[C@]12CCC(=O)C(CC)=C1c1ccc3[nH]nnc3c1C2`
Found: 1.2

Lookup: Subsequent entry: `CCCC[C@@]12CCC(=O)C(Br)=C1c1ccc3[nH]nnc3c1C2`
Found: 2.9

----------
measurement_protocol: AUC in Sprague-Dawley rat at 1 mg/kg, iv
Type: ADME, organism-based
Parameters: dose 1 mg/kg, route intravenous
measurement_context: plasma
Measured AUC accompanies every entry in the list below.
Answer format reminder: number followed by unit.

Please review the following examples before continuing.
compound	AUC
CCCC[C@@]12CCC(=O)C(Br)=C1c1ccc3[nH]nnc3c1C2	1.9 µM·h
CCCCC12CCC(=O)C(CC)=C1c1ccc3[nH]nnc3c1C2 (racemic)	1.7 µM·h
CC[C@@]12CCC(=O)C(C(F)(F)F)=C1c1ccc3nn[nH]c3c1C2	0.6 µM·h

Lookup: Give its AUC value. Item: CCCCC12CCC(=O)C(Br)=C1c1ccc3nn[nH]c3c1C2 (racemic)
Found: 0.5 µM·h

Lookup: Subsequent entry: `CCCC[C@@]12CCC(=O)C(CC)=C1c1ccc3nn[nH]c3c1C2`
Found: 0.9 µM·h

Lookup: Subsequent entry: `CCC1=C2c3ccc4[nH]nnc4c3C[C@]2(CC)CCC1=O`
Found: 1 µM·h

Lookup: Subsequent entry: `CCCC[C@]12CCC(=O)C(CC)=C1c1ccc3[nH]nnc3c1C2`
Found: 3 µM·h

----------
// EC50 collected for UniProtKB Q92731
# value in nM; strip the unit string

Please review the following examples before continuing.
compound	test_target	experimental_value
CCCC12CCC(=O)C(CC)=C1c1ccc3[nH]nnc3c1C2 (stereo unspecified)	UniProtKB Q92731	7.7
CC[C@@]12CCC(=O)C(C(F)(F)F)=C1c1ccc3nn[nH]c3c1C2	UniProtKB Q92731	4.9
CCC1=C2c3ccc4[nH]nnc4c3C[C@]2(CC)CCC1=O	UniProtKB Q92731	5.8

Lookup: Give its EC50 value. Item: `CCCC[C@@]12CCC(=O)C(CC)=C1c1ccc3nn[nH]c3c1C2`
Found: 0.4

Lookup: Subsequent entry: CCCCC12CCC(=O)C(c3ccco3)=C1c1ccc3[nH]nnc3c1C2 (stereo unspecified)
Found: 6.5

The measured values listed here are drawn from ChEMBL document CHEMBL1146919.
